Listed molecules paired with reported Elastic modulus
Test: Tensile properties (GB/T 1040-2006): tensile modulus at 100%, elongation at break, elastic modulus
Assay type: physicochemical
Conditions: PVC plastic with 35 parts plasticizer; 50 mm/min, 25°C
MEASURED METRIC: Elastic modulus (MPa)

                                   molecule  measured_metric  data_value
0  CCCCOC(=O)C=C(CC(=O)OCCCC)C(=O)OCCCC [Example 27, tributyl aconitate]  Elastic modulus       166.7
1  CCCCOC(=O)C=C(CC(=O)OCCCC)C(=O)OCCCC [Example 31, tributyl aconitate]  Elastic modulus       157.6
2  CCCCOC(=O)C=C(CC(=O)OCCCC)C(=O)OCCCC [Comparative Example 1, tributyl aconitate, reference compound]  Elastic modulus       192.2
3  CCCCC(CC)COC(=O)C=C(CC(=O)OCC(CC)CCCC)C(=O)OCC(CC)CCCC (stereo not shown) [Example 20, tri(2-ethylhexyl) aconitate]  Elastic modulus       301.6
4  CCCCOC(=O)C=C(CC(=O)OCCCC)C(=O)OCCCC [Example 28, tributyl aconitate]  Elastic modulus        88.5
5  CCCCOC(=O)C=C(CC(=O)OCCCC)C(=O)OCCCC [Example 26, tributyl aconitate]  Elastic modulus       178.3
6  CCCCOC(=O)C=C(CC(=O)OCCCC)C(=O)OCCCC [Example 30, tributyl aconitate]  Elastic modulus       134.8

* * *

Test: Tensile properties (GB/T 1040-2006): tensile modulus at 100%, elongation at break, elastic modulus
Assay type: physicochemical
Conditions: PVC plastic with 35 parts plasticizer; 50 mm/min, 25°C
Listed molecules paired with reported Elastic modulus
MEASURED METRIC: Elastic modulus

                                   molecule  data_value
0  CCCCOC(=O)C=C(CC(=O)OCCCC)C(=O)OCCCC [Example 25, tributyl aconitate]   156.4 MPa
1  CCCCOC(=O)C=C(CC(=O)OCCCC)C(=O)OCCCC [Example 32, tributyl aconitate]   133.4 MPa
2  CCCCOC(=O)C=C(CC(=O)OCCCC)C(=O)OCCCC [Example 19, tributyl aconitate]    74.6 MPa
3  CCCCOC(=O)C=C(CC(=O)OCCCC)C(=O)OCCCC [Example 34, tributyl aconitate]    77.9 MPa
4  CCCCOC(=O)C=C(CC(=O)OCCCC)C(=O)OCCCC [Example 36, tributyl aconitate]   137.4 MPa
5  CCCCOC(=O)C=C(CC(=O)OCCCC)C(=O)OCCCC [Example 35, tributyl aconitate]   348.6 MPa
6  CCCCOC(=O)C=C(CC(=O)OCCCC)C(=O)OCCCC [Example 23, tributyl aconitate]   128.7 MPa
7  CCOC(=O)C=C(CC(=O)OCC)C(=O)OCC [Example 21, triethyl aconitate]   135.5 MPa

* * *

Listed compounds paired with reported Water extraction rate
Assay: Water extraction rate (ISO 175-2011)
Assay type: physicochemical
Details: PVC composite with 30 parts plasticizer; room temperature, 72 h, deionized water
Where a name gives a salt, the structure may show the parent alone.
MEASURED METRIC: Water extraction rate (%)

In [3]: df
Out[3]:
                                   compound        measured_metric  data_value
0  CCCCCCCCOC(=O)c1ccccc1C(=O)OCCCCCCCC [Dioctyl Phthalate, dioctyl phthalate]  Water extraction rate        0.32
1  CCCCOC(=O)C=C(CC(=O)OCCCC)C(=O)OCCCC [Tributyl aconitate, tributyl aconitate]  Water extraction rate        0.36
2  CCCCOC(=O)CC(O)(CC(=O)OCCCC)C(=O)OCCCC [Tributyl citrate, tributyl citrate]  Water extraction rate        1.16
3  CC(C)CCCCCOC(=O)C=C(CC(=O)OCCCCCC(C)C)C(=O)OCCCCCC(C)C [Triisooctyl aconitate, triisooctyl aconitate]  Water extraction rate        0.14

* * *

Assay: Volatility loss rate (activated carbon method, HG/T 4458-2012)
Type: physicochemical
Details: PVC composite with 30 parts plasticizer; 70°C for 24 h
Method: The above plasticizer is the mixed aconitates prepared in Example 37, and composite materials are prepared according to the above weight ratio and preparation method respectively. At the same time, dioctyl phthalate, tributyl citrate, tributyl aconitate and triisooctyl aconitate are respectively selected as plasticizers to prepare composite materials according to the above weight ratio and preparation method. The test method is the same as that in Test 2 except for the following: • 1. […]
Where a name gives a salt, the structure may show the parent alone.
Listed compounds paired with reported Volatility loss rate
MEASURED METRIC: Volatility loss rate (%)

>>> df
                                   compound  units_symbol  data_value
0  CCCCOC(=O)CC(O)(CC(=O)OCCCC)C(=O)OCCCC [Tributyl citrate, tributyl citrate]             %        3.87
1  CCCCCCCCOC(=O)c1ccccc1C(=O)OCCCCCCCC [Dioctyl Phthalate, dioctyl phthalate]             %        0.96
2  CCCCOC(=O)C=C(CC(=O)OCCCC)C(=O)OCCCC [Tributyl aconitate, tributyl aconitate]             %        1.08
3  CC(C)CCCCCOC(=O)C=C(CC(=O)OCCCCCC(C)C)C(=O)OCCCCCC(C)C [Triisooctyl aconitate, triisooctyl aconitate]             %        0.38

* * *

Assay: Residual amounts of fat-soluble and water-soluble pigments (HPLC)
Format: physicochemical
Conditions: aconitate/citrate products, Table 4
Structures can show the parent of a compound that is named as a salt.
Listed molecules paired with reported Residual amounts of fat-soluble pigments
MEASURED METRIC: Residual amounts of fat-soluble pigments (ppm)

>>> print(df.to_string())
                                    molecule                           measured_metric  units_symbol  data_value
 0  CCCCOC(=O)C=C(CC(=O)OCCCC)C(=O)OCCCC [Example 28, tributyl aconitate]  Residual amounts of fat-soluble pigments           ppm        1658
 1  CCOC(=O)C=C(CC(=O)OCC)C(=O)OCC [Example 21, triethyl aconitate]  Residual amounts of fat-soluble pigments           ppm         385
 2  CCCCOC(=O)C=C(CC(=O)OCCCC)C(=O)OCCCC [Example 36, tributyl aconitate]  Residual amounts of fat-soluble pigments           ppm         836
 3  CCCCOC(=O)C=C(CC(=O)OCCCC)C(=O)OCCCC [Example 33, tributyl aconitate]  Residual amounts of fat-soluble pigments           ppm         395
 4  CCCCOC(=O)C=C(CC(=O)OCCCC)C(=O)OCCCC [Example 35, tributyl aconitate]  Residual amounts of fat-soluble pigments           ppm        3475
 5  CCCCOC(=O)C=C(CC(=O)OCCCC)C(=O)OCCCC [Example 27, tributyl aconitate]  Residual amounts of fat-soluble pigments           ppm        4650
 6  CCCCOC(=O)C=C(CC(=O)OCCCC)C(=O)OCCCC [Example 23, tributyl aconitate]  Residual amounts of fat-soluble pigments           ppm        1356
 7  CCCCOC(=O)CC(O)(CC(=O)OCCCC)C(=O)OCCCC [Comparative Example 5, tributyl citrate, reference compound]  Residual amounts of fat-soluble pigments           ppm         852
 8  CCCCOC(=O)C=C(CC(=O)OCCCC)C(=O)OCCCC [Example 26, tributyl aconitate]  Residual amounts of fat-soluble pigments           ppm        2015
 9  CCCCOC(=O)CC(O)(CC(=O)OCCCC)C(=O)OCCCC [Comparative Example 4, tributyl citrate, reference compound]  Residual amounts of fat-soluble pigments           ppm        3054
10  CCCCOC(=O)C=C(CC(=O)OCCCC)C(=O)OCCCC [Example 34, tributyl aconitate]  Residual amounts of fat-soluble pigments           ppm         428
11  CCCCOC(=O)C=C(CC(=O)OCCCC)C(=O)OCCCC [Example 25, tributyl aconitate]  Residual amounts of fat-soluble pigments           ppm         865
12  CCCCOC(=O)C=C(CC(=O)OCCCC)C(=O)OCCCC [Example 32, tributyl aconitate]  Residual amounts of fat-soluble pigments           ppm         382
13  CCCCOC(=O)C=C(CC(=O)OCCCC)C(=O)OCCCC [Example 29, tributyl aconitate]  Residual amounts of fat-soluble pigments           ppm         435
14  CCCCOC(=O)C=C(CC(=O)OCCCC)C(=O)OCCCC [Example 19, tributyl aconitate]  Residual amounts of fat-soluble pigments           ppm         431
15  CCCCOC(=O)C=C(CC(=O)OCCCC)C(=O)OCCCC [Comparative Example 3, tributyl aconitate, reference compound]  Residual amounts of fat-soluble pigments           ppm        2864
16  CCCCOC(=O)C=C(CC(=O)OCCCC)C(=O)OCCCC [Example 24, tributyl aconitate]  Residual amounts of fat-soluble pigments           ppm        1386
17  CCCCOC(=O)C=C(CC(=O)OCCCC)C(=O)OCCCC [Comparative Example 2, tributyl aconitate, reference compound]  Residual amounts of fat-soluble pigments           ppm        2406

Measured values drawn from patent EP4715056A1 for this set.
